# TARGET_ENTITY: Geranylgeranyl pyrophosphate synthase (Homo sapiens, UniProt O95749)
# Sequence (O95749 whole entry): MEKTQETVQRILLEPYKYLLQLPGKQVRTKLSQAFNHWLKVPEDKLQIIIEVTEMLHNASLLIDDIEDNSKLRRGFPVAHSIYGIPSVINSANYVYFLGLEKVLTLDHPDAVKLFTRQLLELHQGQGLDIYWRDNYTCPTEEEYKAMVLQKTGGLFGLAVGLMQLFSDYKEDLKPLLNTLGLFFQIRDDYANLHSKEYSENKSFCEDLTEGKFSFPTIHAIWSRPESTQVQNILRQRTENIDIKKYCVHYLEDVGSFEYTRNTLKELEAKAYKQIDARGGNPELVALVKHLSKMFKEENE
# MEASUREMENT_NOTES: Inhibition of GGDPS (unknown origin) using recombinant enzyme by enzyme assay
Please go through the items and note down their pIC50.
A value of pIC50 is the negative decimal logarithm of a concentration given in moles per litre.

Asked: Data request, read-out pIC50, for `CC(C)=CCC/C(C)=C\Cn1cc(CC(N)(P(=O)(O)O)P(=O)(O)O)nn1`
Given back: 6.57

Asked: Also need `CC(C)=CCCC(C)=CCn1cc(CC(N)(P(=O)(O)O)P(=O)(O)O)nn1` , thanks.
Given back: 5.42

Asked: Try this molecule too: `CC(C)=CCC/C(C)=C\CCn1cc(CC(N)(P(=O)(O)O)P(=O)(O)O)nn1`
Given back: 7.31

Asked: And then `CC(C)=CCC/C(C)=C/CCn1cc(CC(N)(P(=O)(O)O)P(=O)(O)O)nn1` , what is it?
Given back: 7.28
